# System tested: human 5-HT2C(VSV) (Homo sapiens, UniProt P28335, I156V/I160V/N158S)
# Sequence (P28335 33-458 I156V/N158S/I160V limits assumed): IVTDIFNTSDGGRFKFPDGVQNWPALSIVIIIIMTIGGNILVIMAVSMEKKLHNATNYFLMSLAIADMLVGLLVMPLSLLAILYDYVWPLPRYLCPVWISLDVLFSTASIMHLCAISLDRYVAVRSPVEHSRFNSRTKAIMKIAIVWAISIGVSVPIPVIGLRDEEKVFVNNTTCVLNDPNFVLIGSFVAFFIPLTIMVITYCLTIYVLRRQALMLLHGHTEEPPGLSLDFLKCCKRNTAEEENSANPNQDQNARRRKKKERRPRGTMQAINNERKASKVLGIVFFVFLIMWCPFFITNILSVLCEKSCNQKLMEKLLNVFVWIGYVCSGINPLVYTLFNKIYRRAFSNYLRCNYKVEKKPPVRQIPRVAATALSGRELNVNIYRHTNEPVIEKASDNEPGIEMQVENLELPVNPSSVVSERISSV
# Test method notes: cell-based
Readout type: EC50

Would you please look over these solved cases?
CCn1cc(CCN(C)C)c2c(Oc3ccccc3N)ccc(F)c21 [2-3] ... 0.001 to 0.5 µM
CNCCc1cn(C)c2ccc(F)c(OCC(O)c3ccccc3Cl)c12 (stereo not drawn) [33-37] ... 0.001 to 0.5 µM
CCOc1c(F)ccc2c1c(CCNC1CCc3ccccc31)cn2C (stereo not drawn) [30-19] ... 0.001 to 0.5 µM

What does the record list as EC50 for COc1c(F)ccc2c1c(CCN[C@H]1CCCc3ccccc31)cn2C [17-16] ? 0.001 to 0.5 µM

Item under review: CCn1cc(CCN(C)C)c2c(OCc3ccc(C(F)(F)F)cc3)cc(F)cc21 [1-12b] . Reported EC50? 0.5 to 10 µM

Which measured EC50 value corresponds to CCn1cc(C2CCCNC2)c2c(O)cc(F)cc21 (stereo not drawn) [38-4] ? 0.001 to 0.5 µM
